Test system: OVCAR-4
assay.procedure: NCI tumour cell line growth inhibition, 48 h
The source made the active and inactive calls. No stated cut-off is given here; in the data, active = GI50 up to about 1.1 µM and inactive = higher.
# valid calls are y = active, n = inactive; nothing else

Q: Record request — test call for `COC(=O)c1c(O)ccc2c1c1c(n2Cc2cccc(C)c2)C(=O)c2ccccc2C1`
Ans: y

Q: What did this assay record as the result for `O=C(N/N=C/c1ccc2c(c1)CCC2)c1ccccc1O` ?
Ans: n

Q: Entry `COc1cc(/C=C2\[C@H]3c4c(c(OC)c(C)c(OC)c4OC)C[C@@H](C(=O)N2Cc2ccccc2)N3C(=O)OCC(C)C)c(OC)c(C)c1OC` : call = ?
Ans: n

Q: What did this assay record as the result for `Cc1ccn2c(c1)nc1nc3ccccc3nc12` ?
Ans: n

Q: In this assay, the call recorded for `COC(=O)c1c(O)ccc2c1c1c(n2Cc2cccc(C)c2)C(=O)c2ccccc2C1=O` was what?
Ans: n

Q: Identify the outcome logged in this assay for the molecule shown: CCCCP1(=O)C=CC(Cl)=C(C)C1 (stereo unspecified)
Ans: n

Q: Recorded call for C=CCN1CCC(c2cc(C(=O)OCC)[nH]c2-c2cc(C)no2)C1=O (stereo unspecified) ?
Ans: n

Q: Given `O=C1CCCCC[C@]12SC[C@H]1CON=C12` , state the outcome it received in this test.
Ans: n

Q: Check the results log: what was the call for CC1[C@@H](OCc2ccccc2)COC(=O)N1Cc1ccccc1 (stereo partly specified) ?
Ans: n

Q: Could you please tell me the result logged for `O=C1NCN(c2ccccc2)C12CCN(CCCSc1ccc(F)cc1)CC2` in this assay?
Ans: n

Q: Entry `Clc1nc(Cl)nc(Nc2cccc3ccccc23)n1` : call = ?
Ans: n

// provenance: ChEMBL document CHEMBL1201862
